Known log10 Ki of a selection of compounds
SYSTEM_UNDER_TEST: Cannabinoid receptor 1 (Homo sapiens, UniProt P21554)
Sequence (P21554 whole entry): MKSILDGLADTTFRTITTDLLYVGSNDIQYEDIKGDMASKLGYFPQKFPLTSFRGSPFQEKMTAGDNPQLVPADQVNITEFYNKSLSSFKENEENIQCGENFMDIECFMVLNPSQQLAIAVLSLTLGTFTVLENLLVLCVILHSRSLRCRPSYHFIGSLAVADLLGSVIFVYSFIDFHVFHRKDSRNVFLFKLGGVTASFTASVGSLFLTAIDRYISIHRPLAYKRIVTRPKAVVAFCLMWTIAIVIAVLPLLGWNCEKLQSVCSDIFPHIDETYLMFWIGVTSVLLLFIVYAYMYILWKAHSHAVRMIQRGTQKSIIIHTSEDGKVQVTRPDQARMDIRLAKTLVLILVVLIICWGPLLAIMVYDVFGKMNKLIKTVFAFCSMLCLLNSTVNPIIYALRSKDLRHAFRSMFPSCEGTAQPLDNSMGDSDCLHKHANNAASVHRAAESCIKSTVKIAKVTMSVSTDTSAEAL
PROTOCOL_DESCRIPTION: biochemical
Assay type: cell-based, HEK293
Base-10 log of Ki, unit nM.

# example entries with known answers
| ITEM_SMILES | SYSTEM_UNDER_TEST | log10 Ki |
| --- | --- | --- |
| CCc1nc2c(-c3ccc(Cl)cc3)n(-c3ccccc3Cl)nc2c(=O)n1CC(F)(F)F | Cannabinoid receptor 1 (Homo sapiens, UniProt P21554) | 0.00 |
| CC(C)n1cnc2c(-c3ccc(Cl)cc3)n(-c3ccccc3Cl)nc2c1=O | Cannabinoid receptor 1 (Homo sapiens, UniProt P21554) | 1.32 |
| O=c1c2nn(-c3ccccc3Cl)c(-c3ccc(Cl)cc3)c2ncn1C1CCCCC1 | Cannabinoid receptor 1 (Homo sapiens, UniProt P21554) | 1.30 |
| O=c1c2nn(-c3ccc(Cl)cc3)c(-c3ccccc3Cl)c2ncn1CC(F)(F)F | Cannabinoid receptor 1 (Homo sapiens, UniProt P21554) | 1.45 |

Next:
Prompt: Which log10 Ki value belongs to CCC(CC)n1cnc2c(-c3ccc(Cl)cc3)n(-c3ccccc3Cl)nc2c1=O ?
Completion: 1.41
